Tested on: FLX1
Experiment: cell viability z-score within plate (CellTiter-Glo), mean of 3 biological replicates; higher = higher viability relative to plate (less growth inhibition)
Details: 2 µM; time (hr): 120
Binning of cell viability z-score within plate into classes: b0: < 0.2; b1: ≥ 0.2 and < 0.4; b2: ≥ 0.4

CCOc1cc(C(=O)N2CCC(N3CCN(C)CC3)CC2)ccc1Nc1ncc2c(n1)N(C1CCCC1)c1ccccc1C(=O)N2C :: b2
CCc1cnn2c(NCc3ccc[n+]([O-])c3)cc(N3CCCC[C@H]3CCO)nc12 :: b0
C=CC(=O)Nc1cccc(Nc2nc(Nc3ccc(Oc4ccnc(C(=O)NC)c4)cc3)ncc2F)c1 :: b2
O=C(Nc1ccc(-c2ccnc(Nc3ccc(N4CCOCC4)cc3)n2)cc1)C1CCCN1 (stereo unspecified) :: b1
O=C(c1ccc(Nc2nccc(-c3cc4ccccc4s3)n2)cc1)N1CCC(N2CCCC2)CC1 :: b1
Cc1cc(Nc2cc(N3CCN(C)CC3)nc(Sc3ccc(NC(=O)C4CC4)cc3)n2)n[nH]1 :: b1
CC(C)CCN1c2nc(Nc3cc(F)c(O)c(F)c3)ncc2N(C)C(=O)C1C (stereo unspecified) :: b0
NC(=O)c1ncn([C@@H]2O[C@H](CO)[C@@H](O)[C@H]2O)c1N :: b1
CO[C@H]1C[C@@H]2CC[C@@H](C)[C@@](O)(O2)C(=O)C(=O)N2CCCC[C@H]2C(=O)O[C@H]([C@H](C)C[C@@H]2CC[C@@H](O)[C@H](OC)C2)CC(=O)[C@H](C)/C=C(\C)[C@@H](O)[C@@H](OC)C(=O)[C@H](C)C[C@H](C)/C=C/C=C/C=C/1C [Rapamycin (Sirolimus)] :: b2
CN1CCN(c2nc(C3=C(c4c[nH]c5ccccc45)C(=O)NC3=O)c3ccccc3n2)CC1 :: b2
Oc1cccc(-c2nc(N3CCOCC3)c3oc4ncccc4c3n2)c1 :: b0
COc1ccc(-c2cc3c(C)nc(N)nc3n([C@H]3CC[C@H](OCCO)CC3)c2=O)cn1 :: b0
Cc1[nH]c(/C=C2\C(=O)Nc3ccc(S(=O)(=O)N(C)c4cccc(Cl)c4)cc32)c(C)c1C(=O)N1CCN(C)CC1 :: b0
CN1CCN(c2cccc(Nc3nc4c(-c5ccc(S(C)(=O)=O)cc5)cccn4n3)c2)CC1 :: b2
Cc1cc(O)c2c(c1)C(=O)c1cccc(O)c1C2=O :: b2
Cn1sc(=O)n(Cc2ccccc2)c1=O :: b2

---

Test system: FLX1 + dox-induced PRKAR1A G325D
Assay: difference in log2 fold change of viability vs plate median (dox-induced PRKAR1A G325D minus uninduced); higher = compound less effective when PKA is inhibited
Details: concentration: not stated (2 or 5 uM); 5 days
Where a name gives a salt, the structure may show the parent alone.
Quantity: difference in log2 fold change of viability

Cc1ccc(NC(=O)c2ccc(CN3CCN(C)CC3)cc2)cc1Nc1nccc(-c2cccnc2)n1 [Imatinib Mesylate (STI571)] :: 0.343
CNc1nc(Nc2cn(C(C)(C)C#N)nc2C)ncc1C(F)(F)F :: 0.145
CN1CCN(Cc2ccc(-c3cnc4[nH]cc(-c5ccc6[nH]ccc6c5)c4c3)cc2)CC1 :: -0.00541
CC(C)n1nc(-c2ccc3oc(N)nc3c2)c2c(N)ncnc21 :: -0.0452
Cn1cnc(N)c2ncnc1-2 :: 0.548
Cc1[nH]nc2ccc(-c3cncc(OC[C@@H](N)Cc4ccccc4)c3)cc12 :: 0.18
O=C(Cc1ccc(-c2ccc(OCCN3CCOCC3)cc2)cn1)NCc1ccccc1 :: 0.213
CCN(CC)CCNC(=O)c1c(C)[nH]c(/C=C2\C(=O)Nc3ccc(F)cc32)c1C [Sunitinib Malate] :: -0.043
CO[C@@H](C(=O)N1Cc2[nH]nc(NC(=O)c3ccc(N4CCN(C)CC4)cc3)c2C1)c1ccccc1 :: 0.428
COc1ncc(-c2ccc3nccc(-c4ccnnc4)c3c2)cc1NS(=O)(=O)c1ccc(F)cc1F :: 0.179
COc1ccc(-c2ccc3c(N4CCOCC4)nc(N4C[C@@H](C)O[C@@H](C)C4)nc3n2)cc1CO :: 0.463
O=C(NCc1cccc(O)c1)Nc1nc(-c2ccncc2)cs1 :: -0.0799
CO[C@H]1C[C@@H]2CC[C@@H](C)[C@@](O)(O2)C(=O)C(=O)N2CCCC[C@H]2C(=O)O[C@H]([C@H](C)C[C@@H]2CC[C@@H](OP(C)(C)=O)[C@H](OC)C2)CC(=O)[C@H](C)/C=C(\C)[C@@H](O)[C@@H](OC)C(=O)[C@H](C)C[C@H](C)/C=C/C=C/C=C/1C :: 0.419
N#CC1(c2ccc(NC(=O)c3cccnc3NCc3ccncc3)cc2)CCCC1 :: 0.497
CCn1c(N)c(C(=O)NC)c(=O)c2ccc(C#CC(C)(O)COC)nc21 (configuration not stated) :: 0.0292
COc1cc(N2CCC(N)CC2)ccc1Nc1ncc(Cl)c(-c2c[nH]c3ccccc23)n1 :: 0.0117
CCS(=O)(=O)c1cccc(-c2cc(C(=O)NC3CCN(C)CC3)c(C)c3[nH]c4ncc(C)cc4c23)c1 :: -0.102

---

Test system: FLX1
Assay: cell viability z-score within plate (CellTiter-Glo), mean of 3 biological replicates; higher = higher viability relative to plate (less growth inhibition)
Conditions: 2 µM; time (hr): 120
Each record here notes measured cell viability z-score within plate.
Quantity: cell viability z-score within plate

Cc1cc(Nc2nc(N[C@@H](C)c3ncc(F)cn3)ncc2Cl)[nH]n1 :: -0.166
O=C1NC(=O)C(c2cnc3ccccn23)=C1c1cn2c3c(cc(F)cc13)CN(C(=O)N1CCCCC1)CC2 :: 1.17
CC(C)(C)c1nc(-c2cccc(NS(=O)(=O)c3c(F)cccc3F)c2F)c(-c2ccnc(N)n2)s1 :: 0.0787
Cc1ccccc1CN1C2=NCCN2C(=O)C2=C1CCN(Cc1ccccc1)C2 :: 0.481
Cc1cc(N2CCOCC2)cc2[nH]c(-c3c(NC[C@@H](O)c4cccc(Cl)c4)cc[nH]c3=O)nc12 :: -0.387
N#CC(=C(/N)Sc1ccccc1N)/C(C#N)=C(\N)Sc1ccccc1N :: -1.01
Cc1c(F)cc(C(=O)NC2CC2)cc1-c1ccc(C(=O)NCC(C)(C)C)cn1 :: -0.342
Cc1cc(C(C)Nc2ccccc2)c2nc(N3CCOCC3)cc(=O)n2c1 (centres undefined) :: -0.144
Cc1[nH]c(/C=C2\C(=O)Nc3ccccc32)c(C)c1CCC(=O)O [Orantinib (TSU-68, SU6668)] :: 0.388

---

Test system: FLX1
Assay: cell viability z-score within plate (CellTiter-Glo), mean of 3 biological replicates; higher = higher viability relative to plate (less growth inhibition)
Details: 2 µM; time (hr): 120
Here the recorded cell viability z-score within plate is given for each entry.
Quantity: cell viability z-score within plate

CCN(CC)CCNC(=O)c1c(C)[nH]c(/C=C2\C(=O)Nc3ccc(F)cc32)c1C [Sunitinib Malate] :: -0.049
Cc1ncc(-c2ccnc(Nc3ccc(S(C)(=O)=O)cc3)n2)n1C(C)C :: 0.322
Cc1nc(Nc2cnn(C3CCNCC3)c2)nc2c1N(C)C(=O)c1cc3ccccc3cc1N2C :: 1.62
CCCS(=O)(=O)Nc1ccc(F)c(C(=O)c2c[nH]c3ncc(-c4ccc(Cl)cc4)cc23)c1F :: -3.08

---

Tested on: FLX1 + dox-induced PRKAR1A G325D
Experiment: difference in log2 fold change of viability vs plate median (dox-induced PRKAR1A G325D minus uninduced); higher = compound less effective when PKA is inhibited
Conditions: concentration: not stated (2 or 5 uM); 5 days
Counter-ions that a name gives are not always drawn.
// reported difference in log2 fold change of viability per item
Quantity: difference in log2 fold change of viability

OCCn1cc(-c2cnc3nnn(Cc4ccc5ncccc5c4)c3n2)cn1 :: -0.172
CCn1c2ccccc2c2cc(Nc3ccnc(NCCCN4CCOCC4)n3)ccc21 :: 0.808
O=S(=O)(c1cccc2cnccc12)N1CCCNCC1 [Fasudil (HA-1077) HCl] :: -0.15
CN(C[C@@H]1COCCO1)S(=O)(=O)Nc1ccc2ccc3ncc(-c4cnn(C)c4)cc3c(=O)c2c1 :: -0.247
CN1CCN(c2ccc(Nc3cc(-c4cccc(-n5ccc6cc(C7CC7)cc(F)c6c5=O)c4CO)cn(C)c3=O)nc2)CC1 :: -0.059
Nc1cccc(-c2cc3c(Oc4cccc(O)c4)ncnc3[nH]2)c1 :: -0.478
O=C(NCc1ccccc1)c1csc(Nc2ccncn2)n1 [Thiazovivin] :: 0.59
CCC[C@H](NC(=O)/C(C#N)=C/c1cccc(Br)n1)c1ccccc1 [Degrasyn (WP1130)] :: 0.135
Cc1cc2c(F)c(Oc3ncnn4cc(OC[C@@H](C)OC(=O)[C@H](C)N)c(C)c34)ccc2[nH]1 :: 0.461
COc1cc2ncnc(Oc3ccc(CC(=O)Nc4cnn(C(C)C)c4)cc3)c2cc1OC :: -0.126
Cn1cc(C2=C(c3ccc(Cl)cc3Cl)C(=O)NC2=O)c2ccccc21 :: 0.189
COc1cc(Nc2ncc(F)c(Nc3ccc4c(n3)N(COP(=O)(O)O)C(=O)C(C)(C)O4)n2)cc(OC)c1OC [Fostamatinib (R788)] :: -0.76
N#C/C(=C(/N)Sc1ccc(N)cc1)c1ccccc1C(F)(F)F :: 0.1
S=C(NCc1ccc2c(c1)OCO2)N1CCN(c2ncnc3c2oc2ccccc23)CC1 [Amuvatinib (MP-470)] :: 0.22
Cc1ncc(-c2ccnc(Nc3ccc(S(C)(=O)=O)cc3)n2)n1C(C)C :: 0.632
FC(F)(F)c1ccc(/C=C/c2nc(COc3ccc(CCCCn4ccnn4)cc3)co2)cc1 [Mubritinib (TAK 165)] :: 0.102
O=C(c1ccc(Nc2nccc(-c3cc4ccccc4s3)n2)cc1)N1CCC(N2CCCC2)CC1 [IKK-16 (IKK Inhibitor VII)] :: 0.096
COc1ccc(-c2nc(N3CCOCC3)c3sc(CN(C)c4ncc(C(=O)NO)cn4)cc3n2)cn1 :: 0.159
O=C(Nc1cc(C(F)(F)F)cc(C(F)(F)F)c1)c1cc(Cl)ccc1O :: -0.138
C[C@H]1[C@H](C)CC[C@]2(C(=O)O)CC[C@]3(C)C(=CC[C@@H]4[C@@]5(C)C[C@@H](O)[C@H](O)[C@@](C)(CO)[C@@H]5CC[C@]43C)[C@H]12 [Asiatic Acid] :: -0.0847
Cc1cc(C)c(/C=C2\C(=O)Nc3ccccc32)[nH]1 [Semaxanib (SU5416)] :: 0.256
CC(C)(O)CC(=O)NCCn1ccc2ncnc(Nc3ccc(Oc4cccc(C(F)(F)F)c4)c(Cl)c3)c21 :: -0.173
CCOc1cc2ncc(C#N)c(Nc3ccc(F)c(Cl)c3)c2cc1NC(=O)/C=C/CN(C)C [Pelitinib (EKB-569)] :: 0.0327
CNc1nc(Nc2cnn([C@H]3CCN(C4COC4)C[C@@H]3F)c2Cl)ncc1C(F)(F)F :: -0.177
C=CC(=O)Nc1cccc(Nc2nc(Nc3ccc(NC4CN(CCF)C4)cc3OC)ncc2C(F)(F)F)c1 :: -0.839
CO[C@H]1C[C@@H]2CC[C@@H](C)[C@@](O)(O2)C(=O)C(=O)N2CCCC[C@H]2C(=O)O[C@H]([C@H](C)C[C@@H]2CC[C@@H](OCCO)[C@H](OC)C2)CC(=O)[C@H](C)/C=C(\C)[C@@H](O)[C@@H](OC)C(=O)[C@H](C)C[C@H](C)/C=C/C=C/C=C/1C [Everolimus (RAD001)] :: -1.32
CNC(=O)c1cc(Oc2ccc(NC(=O)Nc3ccc(Cl)c(C(F)(F)F)c3)cc2)ccn1 [Sorafenib Tosylate] :: -0.44
NCC(=O)Nc1ccc(-n2nc(C(F)(F)F)cc2-c2ccc3c(ccc4ccccc43)c2)cc1 :: 0.186
CN1CCCN(C(=O)c2cccc(-c3ccc(/C=C4/C(=O)Nc5ccc(Cl)cc54)o3)c2)CC1 :: -0.148
COc1ccc(CNC(=O)Nc2ncc([N+](=O)[O-])s2)cc1 :: 0.288
Nc1nc(N)c(N=O)c(OCC2CCCCC2)n1 :: -0.216
Cn1c(Nc2ccc(C(F)(F)F)cc2)nc2cc(Oc3ccnc(-c4ncc(C(F)(F)F)[nH]4)c3)ccc21 :: -0.588
CC(C)c1cnn2c(NCc3ccccc3)cc(NCCCCCCN)nc12 :: -0.0617
CCn1c(-c2nonc2N)nc2c(C#CC(C)(C)O)ncc(OC[C@H]3CCCNC3)c21 :: 0.00672
